Read-out: Cytochrome P450 3A4 (Homo sapiens) (UniProt P08684)
Sequence (P08684 whole entry, looked up): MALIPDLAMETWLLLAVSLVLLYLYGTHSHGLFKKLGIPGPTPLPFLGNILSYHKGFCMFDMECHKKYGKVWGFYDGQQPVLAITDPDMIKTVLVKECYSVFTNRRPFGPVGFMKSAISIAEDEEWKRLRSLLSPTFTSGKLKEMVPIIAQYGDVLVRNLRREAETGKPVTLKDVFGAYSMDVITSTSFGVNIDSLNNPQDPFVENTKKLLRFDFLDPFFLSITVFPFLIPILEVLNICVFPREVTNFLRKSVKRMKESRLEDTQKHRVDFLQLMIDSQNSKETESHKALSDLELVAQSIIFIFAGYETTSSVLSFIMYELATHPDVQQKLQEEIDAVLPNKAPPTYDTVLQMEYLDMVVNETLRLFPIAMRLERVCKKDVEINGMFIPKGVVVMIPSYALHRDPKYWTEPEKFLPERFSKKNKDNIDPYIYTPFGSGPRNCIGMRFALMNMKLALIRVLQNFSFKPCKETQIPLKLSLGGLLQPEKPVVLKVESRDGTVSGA
Assay: LTEA_HepaRG_CYP3A4: Life Technologies and Expression Analysis (LTEA) Assay for CYP3A4 using HepaRG (AID 2283487)
Conditions: mRNA level, 48 h; actives raise or lower the signal
Protocol: LTEA_HepaRG is a cell based, multiplexed-readout assay that uses HepaRG, a human liver cell line, with measurements taken at 48 hours after chemical dosing on a 96-well plate.LTEA_HepaRG_CYP3A4 is one of 102 assay component(s) measured in the LTEA HepaRG cell culture assay. It is a marker of NR mediated metabolism.Data from the assay component LTEA_HepaRG_CYP3A4 was analyzed into 1 endpoint. […]
The source made the active and inactive calls. The calls were made as follows: active = hit-call score of the fitted dose curve at least 0.9, where 1 is the maximum; inactive = score below 0.9.
Possible outcomes: active, inactive

{"columns": ["MOLECULE", "ANSWER_LABEL"],
 "data": [
  ["CN(C)C=O", "inactive"],
  ["CN1CCC[C@H]1c1cccnc1", "inactive"],
  ["CC(C)(C)c1ccc(O)c(C(C)(C)C)c1", "active"],
  ["CCN(CC)CCNc1ccc(CNC=O)c2sc3ccc(OC)cc3c(=O)c12", "active"],
  ["CCCOc1sc(C(=O)N2CCC(c3cc(CN)ccc3F)CC2)c(C)c1Br", "inactive"],
  ["CC(=O)NC1(c2cccc(F)c2)CCN(CC[C@@]2(c3ccc(Cl)c(Cl)c3)CN(c3ccccc3)C(=O)CO2)CC1", "active"],
  ["O=C(O)Cc1cc(I)c(Oc2cc(I)c(O)c(I)c2)c(I)c1", "active"],
  ["Cc1cc(C)c(O)c(C)c1", "active"],
  ["CC[C@H](C)[C@@H](C(=O)O)n1sc2ccccc2c1=O", "inactive"],
  ["OCCC(F)(F)C(F)(F)C(F)(F)C(F)(F)C(F)(F)C(F)(F)C(F)(F)C(F)(F)F", "inactive"],
  ["COCC(C)O (configuration not stated)", "inactive"],
  ["COc1ccc([N+](=O)[O-])cc1N", "inactive"]
]}

---

Biological target: Nucleoli Translocation, AR (gene 367) (UniProt P10275)
Sequence (P10275 whole entry, looked up): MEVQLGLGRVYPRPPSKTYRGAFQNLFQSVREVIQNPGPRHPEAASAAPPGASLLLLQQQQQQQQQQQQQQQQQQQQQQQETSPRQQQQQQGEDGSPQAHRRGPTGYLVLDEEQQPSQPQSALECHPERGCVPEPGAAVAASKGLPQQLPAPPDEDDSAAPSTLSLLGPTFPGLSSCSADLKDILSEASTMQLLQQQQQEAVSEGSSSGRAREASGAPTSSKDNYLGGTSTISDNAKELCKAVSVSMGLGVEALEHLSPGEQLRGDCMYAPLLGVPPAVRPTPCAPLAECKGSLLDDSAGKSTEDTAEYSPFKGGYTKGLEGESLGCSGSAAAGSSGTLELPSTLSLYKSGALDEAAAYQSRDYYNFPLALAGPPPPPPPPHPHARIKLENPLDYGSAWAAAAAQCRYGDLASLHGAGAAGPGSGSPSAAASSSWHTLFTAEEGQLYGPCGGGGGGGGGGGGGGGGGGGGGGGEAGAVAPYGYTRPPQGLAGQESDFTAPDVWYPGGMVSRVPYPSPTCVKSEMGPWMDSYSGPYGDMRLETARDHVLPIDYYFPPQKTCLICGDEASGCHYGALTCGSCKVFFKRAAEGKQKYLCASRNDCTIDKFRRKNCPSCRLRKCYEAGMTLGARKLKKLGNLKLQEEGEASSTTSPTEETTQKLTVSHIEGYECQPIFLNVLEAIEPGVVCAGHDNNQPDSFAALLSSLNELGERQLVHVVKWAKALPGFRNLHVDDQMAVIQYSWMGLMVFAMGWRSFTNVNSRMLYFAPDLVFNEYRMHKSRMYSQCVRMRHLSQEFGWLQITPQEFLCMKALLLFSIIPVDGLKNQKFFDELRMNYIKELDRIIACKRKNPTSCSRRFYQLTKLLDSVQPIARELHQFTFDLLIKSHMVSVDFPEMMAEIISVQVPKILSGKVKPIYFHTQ
Assay: UPITT_HCI_U2OS_AR_TIF2_Nucleoli_Agonist: University of Pittsburgh U2OS Androgen Receptor-Transcriptional Intermediary Factor 2 (AR-TIF2) Agonism High Content Imaging Assay for Nucleoli Translocation (AID 2283998)
Records with an inconclusive call do not appear. Activity calls are given as the source filed them. The calls were made as follows: active = hit-call score of the fitted dose curve at least 0.9, where 1 is the maximum; inconclusive = response in the unintended direction; inactive = score below 0.9.
Labels: active, inactive

{"columns": ["COMPOUND", "ASSAYED_SYSTEM", "ANSWER_LABEL"],
 "data": [
  ["CC[C@H](c1ccc(O)cc1)[C@@H](CC)c1ccc(O)cc1", "Nucleoli Translocation, AR (gene 367) (UniProt P10275)", "active"],
  ["CCCOc1sc(C(=O)N2CCC(c3cc(CN)ccc3F)CC2)c(C)c1Br", "Nucleoli Translocation, AR (gene 367) (UniProt P10275)", "active"],
  ["NC(=O)N1C(=O)C(C(=O)c2cc(Cl)cs2)c2cc(F)c(Cl)cc21 (stereo unspecified)", "Nucleoli Translocation, AR (gene 367) (UniProt P10275)", "inactive"],
  ["CCC(=C(c1ccc(O)cc1)c1ccc(OCCN(C)C)cc1)c1ccccc1", "Nucleoli Translocation, AR (gene 367) (UniProt P10275)", "active"],
  ["Cc1oc(-c2ccccc2)nc1CCOc1ccc(C[C@H](Nc2ccccc2C(=O)c2ccccc2)C(=O)O)cc1", "Nucleoli Translocation, AR (gene 367) (UniProt P10275)", "inactive"],
  ["CC(=O)CC(C)(C)O", "Nucleoli Translocation, AR (gene 367) (UniProt P10275)", "inactive"]
]}

---

Read-out: CD38, CD38 (gene 952)
Experiment: BSK_SAg_CD38: BioMAP Diversity Plus: SAg Assay for CD38 Biomarker Activity (AID 2283087)
Conditions: primary human HUVEC with PBMC; actives raise or lower the signal
The source made the active and inactive calls. The calls were made as follows: active = hit-call score of the fitted dose curve at least 0.9, where 1 is the maximum; inactive = score below 0.9.
Outcome codes: active, inactive

{"columns": ["COMPOUND", "ANSWER_LABEL"],
 "data": [
  ["OC1CCC(C2CCCCC2)CC1 (stereo unspecified)", "inactive"],
  ["c1ccc2cc3c(ccc4ccccc43)cc2c1", "inactive"],
  ["CCCCCCCCCCCCN1CCCC1=O", "active"],
  ["CC(C)(C)c1cc(C(C)(C)C)c(O)c(C(C)(C)C)c1", "inactive"],
  ["CC1=C(/C=C/C(C)=C/C=C/C(C)=C/C(=O)O)C(C)(C)CCC1", "active"],
  ["O=[N+]([O-])c1ccc(O)cc1", "inactive"]
]}

---

Read-out: Urokinase-type plasminogen activator receptor (uPAR), PLAUR (gene 5329)
Assay: BSK_CASM3C_uPAR: BioMAP Diversity Plus: CASM3C Assay for Urokinase-type plasminogen activator receptor (uPAR) Biomarker Activity (AID 2283054);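 also: cell-surface uPAR protein level quantified by ELISA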
Conditions: primary human coronary artery smooth muscle cells; actives raise or lower the signal
The source made the active and inactive calls. The calls were made as follows: active = hit-call score of the fitted dose curve at least 0.9, where 1 is the maximum; inactive = score below 0.9.

{"columns": ["COMPOUND", "AC50"],
 "data": [
  ["CCCCCCCCCCCCN1CCCC1=O", "inactive"],
  ["Cc1oc(-c2ccccc2)nc1CCOc1ccc(C[C@H](Nc2ccccc2C(=O)c2ccccc2)C(=O)O)cc1", "31.2 µM (active)"],
  ["CC[C@H](c1ccc(O)cc1)[C@@H](CC)c1ccc(O)cc1", "inactive"],
  ["CCCCCCCCCCCCCC[N+](C)(C)C", "5.05 µM (active)"],
  ["CCC(C)(C)C1CCC(O)CC1 (stereo unspecified)", "inactive"],
  ["CN(C)C=O", "inactive"],
  ["CCCCCCCC(=O)O", "inactive"],
  ["CC#C[C@]1(O)CC[C@H]2[C@@H]3CCC4=CC(=O)CCC4=C3[C@@H](c3ccc(N(C)C)cc3)C[C@@]21C", "30.6 µM (active)"],
  ["CCCCCCCCC(=O)O", "inactive"],
  ["CCc1nn(C2CCCCC2)c2cc(C3(C#N)CCC(C(=O)O)CC3)ccc12 (stereo unspecified)", "1.03 µM (active)"],
  ["CC(C)CCCCCCOC(=O)CCCCC(=O)OCCCCCCC(C)C", "inactive"],
  ["OC1CCC(C2CCCCC2)CC1 (stereo unspecified)", "inactive"],
  ["OCCC(F)(F)C(F)(F)C(F)(F)C(F)(F)C(F)(F)C(F)(F)F", "inactive"],
  ["c1ccc2cc3c(ccc4ccccc43)cc2c1", "inactive"],
  ["C#C[C@]1(O)CC[C@H]2[C@@H]3CCC4=CC(=O)CC[C@@H]4[C@H]3CC[C@@]21C", "inactive"],
  ["O=C(O)Cc1cc(I)c(Oc2cc(I)c(O)c(I)c2)c(I)c1", "inactive"],
  ["COCC(C)OCC(C)O (stereo unspecified)", "inactive"],
  ["CCCOc1sc(C(=O)N2CCC(c3cc(CN)ccc3F)CC2)c(C)c1Br", "8.94 µM (active)"],
  ["Oc1cc2ccccc2c2ccccc12", "11.2 µM (active)"],
  ["CCCCOCCO", "inactive"],
  ["N#C[C@@H]1CC(F)(F)CN1C(=O)CNC1CC2CCC(C1)N2c1ncccn1 (stereo partly specified)", "inactive"],
  ["CC(C)(C)c1cccc(C(C)(C)C)c1O", "inactive"],
  ["Nc1cccc2c(N)cccc12", "inactive"],
  ["CC(O)CO (stereo unspecified)", "inactive"],
  ["CCCCCCCCOC(=O)CCCCCCCCC(=O)OCCCCCCCC", "inactive"],
  ["CC[C@H](C)[C@@H](C(=O)O)n1sc2ccccc2c1=O", "inactive"]
]}

---

Read-out: Monokine induced gamma interferon (MIG), CXCL9 (gene 4283)
Assay: BSK_hDFCGF_MIG: BioMAP Diversity Plus: hDFCGF Assay for Monokine induced gamma interferon (MIG) Biomarker Activity (AID 2283063)
Details: primary human foreskin fibroblasts; actives raise or lower the signal
The source made the active and inactive calls. How the source made its calls: active means hit-call score of the fitted dose curve at least 0.9, where 1 is the maximum; inactive means score below 0.9.
Outcome codes: t (active), f (inactive)

{"columns": ["COMPOUND", "ANSWER_LABEL"],
 "data": [
  ["N#C[C@@H]1CC(F)(F)CN1C(=O)CNC1CC2CCC(C1)N2c1ncccn1 (some centres undefined)", "f"],
  ["CCOC(=O)CC(O)(CC(=O)OCC)C(=O)OCC", "f"],
  ["ClC1=C(Cl)C(Cl)(Cl)C(Cl)=C1Cl", "t"],
  ["CN(C)C=O", "f"],
  ["C[C@@H]1C[C@H]2[C@@H]3CCC4=CC(=O)C=C[C@]4(C)[C@@]3(F)[C@@H](O)C[C@]2(C)[C@@]1(O)C(=O)COP(=O)(O)O", "f"],
  ["CCCCCCCCCCCCc1ccccc1S(=O)(=O)O", "t"],
  ["CCCCCCCCC(=O)O", "f"],
  ["O=C(O)c1ccccc1C(c1ccc(O)cc1)c1ccc(O)cc1", "f"],
  ["NCC(F)(F)C(F)(F)C(F)(F)C(F)(F)C(F)(F)C(F)(F)C(F)(F)F", "f"],
  ["CC#C[C@]1(O)CC[C@H]2[C@@H]3CCC4=CC(=O)CCC4=C3[C@@H](c3ccc(N(C)C)cc3)C[C@@]21C", "f"],
  ["CCC(=C(c1ccc(O)cc1)c1ccc(OCCN(C)C)cc1)c1ccccc1", "t"],
  ["Cc1cc(CCN2CCN(c3nsc4ccccc34)CC2)cc2c1NC(=O)CC2(C)C", "t"],
  ["Cc1oc(-c2ccccc2)nc1CCOc1ccc(C[C@H](Nc2ccccc2C(=O)c2ccccc2)C(=O)O)cc1", "t"],
  ["COc1ccc([N+](=O)[O-])cc1N", "f"],
  ["C=C(C)C(=O)OCCC(F)(F)C(F)(F)C(F)(F)C(F)(F)C(F)(F)C(F)(F)F", "f"],
  ["CCCCCCCCOC(=O)CCCCCCCCC(=O)OCCCCCCCC", "f"],
  ["CCC(C)(C)C1CCC(O)CC1 (centres undefined)", "f"],
  ["FC(F)(I)C(F)(F)C(F)(F)C(F)(F)C(F)(F)C(F)(F)I", "t"],
  ["CCCCCCCCCCCCN1CCCC1=O", "t"],
  ["O=C(OCCOCCOC(=O)c1ccccc1)c1ccccc1", "f"],
  ["CCCCCCCC(=O)O", "f"],
  ["CC(C)(C)c1cccc(C(C)(C)C)c1O", "t"],
  ["OC1CCC(C2CCCCC2)CC1 (centres undefined)", "f"],
  ["CCN(CC)CCNc1ccc(CNC=O)c2sc3ccc(OC)cc3c(=O)c12", "t"]
]}
